measurement notes: Substrate specificity of WNanoKAZ mutants, crude enzyme solution (Example 11)
Type: biochemical
assay setup: substrate 6h-CTZ, Imax
Description: DTT was added to the crude enzyme solution obtained in EXAMPLE 9 at a final concentration of 1 mM, and then allowed to stand in an ice-water bath over 8 hours or more. After 1 μL of the crude enzyme solution was added to 100 μL of 30 mM Tris-HCl (pH 7.6)-10 mM EDTA (Wako Pure Chemical Industries, Ltd.) containing 1 μg of coelenterazine (manufactured by JNC Corp.), a luminescence reaction was started. […] The maximum intensity of luminescence (Imax) was given as a relative luminescence activity (rlu). […]
recorded endpoint: Relative luminescence activity, 6h-CTZ, Imax
Could you respond with only the numeric value?

Example entries and their recorded answers appear below.
- WNanoKAZ-V90I: single amino acid-substituted WNanoKAZ mutant, valine 90 back to isoleucine; SEQ ID NO: 8 (protein) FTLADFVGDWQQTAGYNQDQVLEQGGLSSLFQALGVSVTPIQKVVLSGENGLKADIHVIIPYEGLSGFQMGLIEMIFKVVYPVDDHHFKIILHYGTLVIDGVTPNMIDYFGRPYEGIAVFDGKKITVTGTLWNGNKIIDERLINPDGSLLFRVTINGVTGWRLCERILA: 5.1
- WNanoKAZ-I138Y: single amino acid-substituted WNanoKAZ mutant I138Y; SEQ ID NO: 14 (protein) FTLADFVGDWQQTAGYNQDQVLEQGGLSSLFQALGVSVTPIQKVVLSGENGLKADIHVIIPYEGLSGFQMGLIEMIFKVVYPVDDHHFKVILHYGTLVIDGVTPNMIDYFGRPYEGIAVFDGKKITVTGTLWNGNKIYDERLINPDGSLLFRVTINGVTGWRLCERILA: 1.7
- KAZ: 19 kDa protein of native Oplophorus luciferase having luminescence activity; SEQ ID NO: 2 (protein, listed as Oplophorus gracilirostris) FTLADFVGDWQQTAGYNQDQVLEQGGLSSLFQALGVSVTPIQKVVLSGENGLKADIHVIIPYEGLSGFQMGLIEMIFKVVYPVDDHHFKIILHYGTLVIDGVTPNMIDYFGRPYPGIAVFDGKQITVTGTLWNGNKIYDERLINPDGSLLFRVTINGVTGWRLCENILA: 0.08
- WNanoKAZ-E115P: WNanoKAZ with substitution of proline for glutamic acid at position 115; SEQ ID NO: 10 (protein) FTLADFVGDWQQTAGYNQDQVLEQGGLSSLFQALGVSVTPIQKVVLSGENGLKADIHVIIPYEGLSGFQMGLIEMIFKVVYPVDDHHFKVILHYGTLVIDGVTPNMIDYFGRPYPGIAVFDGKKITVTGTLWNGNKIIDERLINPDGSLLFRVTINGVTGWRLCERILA: 5.9

As a next step, examine the molecule that follows.
# input // returns reported Relative luminescence activity, 6h-CTZ, Imax for input WNanoKAZ: chimeric protein: positions 1-82 of native KAZ and 83-169 of nanoKAZ; SEQ ID NO: 6; I90V, P115E, Q124K, Y138I, N166R (protein, chimeric protein: positions 1-82 of native KAZ and 83-169 of nanoKAZ; I90V, P115E, Q124K, Y138I, N166R) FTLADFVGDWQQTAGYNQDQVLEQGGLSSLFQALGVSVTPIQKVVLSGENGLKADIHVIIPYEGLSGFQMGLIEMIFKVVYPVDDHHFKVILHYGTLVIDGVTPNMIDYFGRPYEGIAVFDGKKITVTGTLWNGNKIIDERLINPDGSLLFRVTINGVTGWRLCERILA
# output 8.9
